Species: Cavia porcellus
Assay: Inhibition of CCl4 induced lipid peroxidation (LPO) of guinea pig hepatic microsomes at 300 uM concentration
Type: functional
Conditions: Liver
pIC50: −log10 of the molar value.

{"compound": "Cc1c(C)c2c(c(C)c1O)CC[C@@](C)(CCC[C@H](C)CCC[C@H](C)CCCC(C)C)O2 [ALPHA-TOCOPHEROL]", "pIC50": 3.55}

----------
Species: Cavia porcellus
Assay: Inhibition of CCl4 induced lipid peroxidation (LPO) of guinea pig hepatic microsomes at 300 uM concentration
Assay type: functional
Conditions: Liver
measuredEndpoint: inhibition (%)

{"compound": "CCCCS(=O)(=O)Nc1ccccc1C#CCCC1OC(O)=C(O)C1=O (stereo not given)", "measuredEndpoint": "inhibition", "unitTag": "%", "experimentalValue": 75}
{"compound": "CCCCCSCc1ccccc1C#CCCC1OC(O)=C(O)C1=O (stereo not given)", "measuredEndpoint": "inhibition", "unitTag": "%", "experimentalValue": 62}
{"compound": "CCC/C=C\\Cc1ccccc1C#CCCC1OC(O)=C(O)C1=O (stereo not given)", "measuredEndpoint": "inhibition", "unitTag": "%", "experimentalValue": 72}
{"compound": "O=C1C(O)=C(O)OC1CCC#Cc1ccccc1 (stereo not given)", "measuredEndpoint": "inhibition", "unitTag": "%", "experimentalValue": 62}
{"compound": "CCCS(=O)(=O)Cc1ccccc1C#CCCC1OC(O)=C(O)C1=O (stereo not given)", "measuredEndpoint": "inhibition", "unitTag": "%", "experimentalValue": 60}
{"compound": "CCCSCc1ccccc1C#CCCC1OC(O)=C(O)C1=O (stereo not given)", "measuredEndpoint": "inhibition", "unitTag": "%", "experimentalValue": 72}
{"compound": "O=C1C(O)=C(O)OC1CCC#Cc1ccccc1CSc1ccccc1 (stereo not given)", "measuredEndpoint": "inhibition", "unitTag": "%", "experimentalValue": 61}
{"compound": "Cc1ccccc1C#CCCC1OC(O)=C(O)C1=O (stereo not given)", "measuredEndpoint": "inhibition", "unitTag": "%", "experimentalValue": 59}
{"compound": "CC(=O)Oc1ccccc1C(=O)O", "measuredEndpoint": "inhibition", "unitTag": "%", "experimentalValue": 4}
{"compound": "CCC/C=C\\Cc1ccccc1/C=C\\CCC1OC(O)=C(O)C1=O (stereo not given)", "measuredEndpoint": "inhibition", "unitTag": "%", "experimentalValue": 68}

----------
Target: UniProtKB P12527
Sequence (P12527 whole entry): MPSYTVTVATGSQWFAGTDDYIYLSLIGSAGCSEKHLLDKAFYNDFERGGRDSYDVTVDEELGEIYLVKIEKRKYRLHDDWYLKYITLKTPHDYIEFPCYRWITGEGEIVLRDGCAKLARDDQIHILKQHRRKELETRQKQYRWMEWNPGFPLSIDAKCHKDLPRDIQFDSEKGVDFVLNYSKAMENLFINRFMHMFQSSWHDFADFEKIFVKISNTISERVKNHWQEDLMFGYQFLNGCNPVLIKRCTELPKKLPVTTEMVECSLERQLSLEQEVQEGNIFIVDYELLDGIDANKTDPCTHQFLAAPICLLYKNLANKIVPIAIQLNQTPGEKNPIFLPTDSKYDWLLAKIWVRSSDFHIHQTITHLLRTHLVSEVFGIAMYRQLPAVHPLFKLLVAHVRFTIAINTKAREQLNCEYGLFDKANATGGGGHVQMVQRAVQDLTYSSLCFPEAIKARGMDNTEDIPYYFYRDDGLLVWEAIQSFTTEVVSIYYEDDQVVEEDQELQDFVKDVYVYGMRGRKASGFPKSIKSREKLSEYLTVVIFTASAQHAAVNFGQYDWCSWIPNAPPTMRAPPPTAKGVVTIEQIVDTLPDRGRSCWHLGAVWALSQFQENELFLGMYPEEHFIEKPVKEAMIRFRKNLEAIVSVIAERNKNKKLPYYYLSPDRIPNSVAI
Experiment: Inhibition of 5-lipoxygenase of rat basophilic leukemia cells at 30 uM
Format: cell-based
Conditions: RBL-1
Examples of compounds with documented inhibition follow.
measuredEndpoint: inhibition (%)

{"compound": "O=C1C(O)=C(O)OC1CCC#Cc1ccccc1 (stereo unspecified)", "assayedSystem": "UniProtKB P12527", "experimentalValue": 58}
{"compound": "CCC/C=C\\Cc1ccccc1C#CCCC1OC(O)=C(O)C1=O (stereo unspecified)", "assayedSystem": "UniProtKB P12527", "experimentalValue": 81}
{"compound": "CCCCCSCc1ccccc1C#CCCC1OC(O)=C(O)C1=O (stereo unspecified)", "assayedSystem": "UniProtKB P12527", "experimentalValue": 90}
{"compound": "CC(=O)Oc1ccccc1C(=O)O", "assayedSystem": "UniProtKB P12527", "experimentalValue": 0}
{"compound": "CCC/C=C\\Cc1ccccc1/C=C\\CCC1OC(O)=C(O)C1=O (stereo unspecified)", "assayedSystem": "UniProtKB P12527", "experimentalValue": 99}
{"compound": "CCCSCc1ccccc1C#CCCC1OC(O)=C(O)C1=O (stereo unspecified)", "assayedSystem": "UniProtKB P12527", "experimentalValue": 82}
{"compound": "Cc1ccccc1C#CCCC1OC(O)=C(O)C1=O (stereo unspecified)", "assayedSystem": "UniProtKB P12527", "experimentalValue": 43}
{"compound": "O=C1C(O)=C(O)OC1CCC#Cc1ccccc1CSc1ccccc1 (stereo unspecified)", "assayedSystem": "UniProtKB P12527", "experimentalValue": 100}
{"compound": "O=C1C(O)=C(O)OC1CCC#Cc1ccc(Cc2ccc(F)cc2)s1 (stereo unspecified)", "assayedSystem": "UniProtKB P12527", "experimentalValue": 100}
{"compound": "CCCCS(=O)(=O)Nc1ccccc1C#CCCC1OC(O)=C(O)C1=O (stereo unspecified)", "assayedSystem": "UniProtKB P12527", "experimentalValue": 81}
{"compound": "CCCS(=O)(=O)Cc1ccccc1C#CCCC1OC(O)=C(O)C1=O (stereo unspecified)", "assayedSystem": "UniProtKB P12527", "experimentalValue": 30}

----------
Target: Prostaglandin G/H synthase 1 (Ovis aries) (UniProt P05979)
Sequence (P05979 whole entry): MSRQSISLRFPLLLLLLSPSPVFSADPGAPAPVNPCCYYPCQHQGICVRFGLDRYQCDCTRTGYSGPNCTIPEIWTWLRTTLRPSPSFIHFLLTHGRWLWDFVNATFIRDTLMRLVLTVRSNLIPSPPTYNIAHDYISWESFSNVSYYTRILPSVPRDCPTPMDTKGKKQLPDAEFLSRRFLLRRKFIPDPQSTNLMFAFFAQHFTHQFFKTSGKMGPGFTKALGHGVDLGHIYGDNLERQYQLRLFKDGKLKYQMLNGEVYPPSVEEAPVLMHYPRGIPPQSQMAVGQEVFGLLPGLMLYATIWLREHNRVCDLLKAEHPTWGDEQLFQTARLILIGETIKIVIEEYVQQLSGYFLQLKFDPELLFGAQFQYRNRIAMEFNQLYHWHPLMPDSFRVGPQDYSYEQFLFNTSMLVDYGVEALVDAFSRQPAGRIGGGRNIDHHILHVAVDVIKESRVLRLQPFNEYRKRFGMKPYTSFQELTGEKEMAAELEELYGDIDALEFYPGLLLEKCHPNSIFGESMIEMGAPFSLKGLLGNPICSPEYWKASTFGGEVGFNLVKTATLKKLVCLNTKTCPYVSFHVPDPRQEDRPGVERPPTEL
Assay: Inhibition of Prostaglandin G/H synthase 1 isolated from ram (sheep) seminal vesicle at 300 uM
Assay type: tissue-based
// label = satisfied if inhibition is not less than 40%, otherwise not satisfied

{"molecule": "CCCCCSCc1ccccc1C#CCCC1OC(O)=C(O)C1=O (stereo not given)", "categoryLabel": "satisfied"}
{"molecule": "CCCSCc1ccccc1C#CCCC1OC(O)=C(O)C1=O (stereo not given)", "categoryLabel": "not satisfied"}
{"molecule": "CC(=O)Oc1ccccc1C(=O)O", "categoryLabel": "satisfied"}
{"molecule": "Cc1ccccc1C#CCCC1OC(O)=C(O)C1=O (stereo not given)", "categoryLabel": "not satisfied"}
{"molecule": "CCC/C=C\\Cc1ccccc1C#CCCC1OC(O)=C(O)C1=O (stereo not given)", "categoryLabel": "satisfied"}
{"molecule": "CCCS(=O)(=O)Cc1ccccc1C#CCCC1OC(O)=C(O)C1=O (stereo not given)", "categoryLabel": "not satisfied"}
{"molecule": "O=C1C(O)=C(O)OC1CCC#Cc1ccccc1CSc1ccccc1 (stereo not given)", "categoryLabel": "not satisfied"}
{"molecule": "O=C1C(O)=C(O)OC1CCC#Cc1ccccc1 (stereo not given)", "categoryLabel": "not satisfied"}
{"molecule": "CCC/C=C\\Cc1ccccc1/C=C\\CCC1OC(O)=C(O)C1=O (stereo not given)", "categoryLabel": "not satisfied"}
{"molecule": "CCCCS(=O)(=O)Nc1ccccc1C#CCCC1OC(O)=C(O)C1=O (stereo not given)", "categoryLabel": "not satisfied"}

----------
Target: Prostaglandin G/H synthase 2 (Ovis aries) (UniProt P79208)
Sequence (P79208 whole entry): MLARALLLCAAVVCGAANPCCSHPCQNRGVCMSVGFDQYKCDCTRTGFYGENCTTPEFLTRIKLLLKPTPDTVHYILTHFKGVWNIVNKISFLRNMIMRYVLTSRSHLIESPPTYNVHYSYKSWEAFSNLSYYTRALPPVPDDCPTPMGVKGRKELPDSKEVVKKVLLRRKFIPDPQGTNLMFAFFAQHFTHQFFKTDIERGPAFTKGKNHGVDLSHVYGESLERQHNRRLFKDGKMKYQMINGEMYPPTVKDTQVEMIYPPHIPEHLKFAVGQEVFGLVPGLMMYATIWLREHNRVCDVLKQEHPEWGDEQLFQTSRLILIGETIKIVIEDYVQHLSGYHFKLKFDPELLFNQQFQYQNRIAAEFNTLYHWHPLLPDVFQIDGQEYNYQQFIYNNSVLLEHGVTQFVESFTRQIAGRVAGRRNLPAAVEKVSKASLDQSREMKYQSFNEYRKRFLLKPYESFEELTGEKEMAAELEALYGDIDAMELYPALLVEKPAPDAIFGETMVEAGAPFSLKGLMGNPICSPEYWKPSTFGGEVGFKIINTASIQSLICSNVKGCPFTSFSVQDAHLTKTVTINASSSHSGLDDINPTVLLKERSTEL
Experiment: Inhibition of Prostaglandin G/H synthase 2 from sheep placenta at 300 uM
Examples of molecules with documented inhibition follow.
measuredEndpoint: inhibition (%)

{"molecule": "O=C1C(O)=C(O)OC1CCC#Cc1ccccc1 (stereo not given)", "measuredEndpoint": "inhibition", "experimentalValue": 13}
{"molecule": "CCC/C=C\\Cc1ccccc1/C=C\\CCC1OC(O)=C(O)C1=O (stereo not given)", "measuredEndpoint": "inhibition", "experimentalValue": 28}
{"molecule": "CCCS(=O)(=O)Cc1ccccc1C#CCCC1OC(O)=C(O)C1=O (stereo not given)", "measuredEndpoint": "inhibition", "experimentalValue": 12}
{"molecule": "CCC/C=C\\Cc1ccccc1C#CCCC1OC(O)=C(O)C1=O (stereo not given)", "measuredEndpoint": "inhibition", "experimentalValue": 28}
{"molecule": "Cc1ccccc1C#CCCC1OC(O)=C(O)C1=O (stereo not given)", "measuredEndpoint": "inhibition", "experimentalValue": 18}
{"molecule": "O=C1C(O)=C(O)OC1CCC#Cc1ccccc1CSc1ccccc1 (stereo not given)", "measuredEndpoint": "inhibition", "experimentalValue": 15}
{"molecule": "CCCCS(=O)(=O)Nc1ccccc1C#CCCC1OC(O)=C(O)C1=O (stereo not given)", "measuredEndpoint": "inhibition", "experimentalValue": 23}
{"molecule": "CCCSCc1ccccc1C#CCCC1OC(O)=C(O)C1=O (stereo not given)", "measuredEndpoint": "inhibition", "experimentalValue": 20}
{"molecule": "CCCCCSCc1ccccc1C#CCCC1OC(O)=C(O)C1=O (stereo not given)", "measuredEndpoint": "inhibition", "experimentalValue": 45}
{"molecule": "CC(=O)Oc1ccccc1C(=O)O", "measuredEndpoint": "inhibition", "experimentalValue": 0}
